Target: human serum albumin (HSA) (Homo sapiens, UniProt P02768)
Construct: purchased Sigma-Aldrich Co
Sequence (P02768 25-609): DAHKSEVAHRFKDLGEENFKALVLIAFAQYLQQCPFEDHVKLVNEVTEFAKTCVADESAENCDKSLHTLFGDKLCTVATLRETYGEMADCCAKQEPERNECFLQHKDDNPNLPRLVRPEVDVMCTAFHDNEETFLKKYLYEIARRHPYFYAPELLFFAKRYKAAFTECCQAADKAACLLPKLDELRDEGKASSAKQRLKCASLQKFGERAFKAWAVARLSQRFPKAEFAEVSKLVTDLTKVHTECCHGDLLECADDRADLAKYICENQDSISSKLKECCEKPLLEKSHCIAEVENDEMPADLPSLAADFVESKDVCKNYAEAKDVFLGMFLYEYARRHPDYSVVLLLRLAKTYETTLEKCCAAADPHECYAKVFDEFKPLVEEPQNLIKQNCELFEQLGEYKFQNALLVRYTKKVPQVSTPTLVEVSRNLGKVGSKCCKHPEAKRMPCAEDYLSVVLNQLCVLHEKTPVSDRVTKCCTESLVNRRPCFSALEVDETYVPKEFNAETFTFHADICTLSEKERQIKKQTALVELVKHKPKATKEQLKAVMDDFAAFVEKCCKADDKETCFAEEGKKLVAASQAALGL
Experiment: Albumin tryptophan fluorescence quenching
Type: binding
Conditions: τ0 = 10^−8 s
Overview of recorded Kq (HSA) for various compounds

Examples with their reported Kq (HSA) follow.
COMPOUND	SYSTEM	RECORDED MEASUREMENT
C[O-].C[O-].Cc1ccc2ccc3ccc(C)nc3c2n1.Cc1ccc2ccc3ccc(C)nc3c2n1.O=C([O-])c1ccccc1Nc1ccc([N+](=O)[O-])cc1.O=C([O-])c1ccccc1Nc1ccc([N+](=O)[O-])cc1.[Co+2].[Co+2] [Complex 4, [Co2(4′–NO2–fen)2(μ–CH3O)2(neoc)2]]	human serum albumin (HSA) (Homo sapiens, UniProt P02768)	3.98 (±0.12) × 10^13 M^−1s^−1
O=C(O)c1ccccc1Nc1ccc([N+](=O)[O-])cc1	human serum albumin (HSA) (Homo sapiens, UniProt P02768)	9.54 (±1.09) × 10^12 M^−1s^−1
O=C([O-])c1ccccc1Nc1ccc([N+](=O)[O-])cc1.O=C([O-])c1ccccc1Nc1ccc([N+](=O)[O-])cc1.[Co+2].c1ccc(Nc2ccccn2)nc1 [Complex 2, [Co(4′–NO2–fen)2(bipyam)]]	human serum albumin (HSA) (Homo sapiens, UniProt P02768)	1.91 (±0.06) × 10^13 M^−1s^−1
CO.CO.CO.CO.O=C([O-])c1ccccc1Nc1ccc([N+](=O)[O-])cc1.O=C([O-])c1ccccc1Nc1ccc([N+](=O)[O-])cc1.[Co+2] [Complex 1, [Co(4′–NO2–fen)2(MeOH)4]]	human serum albumin (HSA) (Homo sapiens, UniProt P02768)	1.10 (±0.03) × 10^13 M^−1s^−1

Which Kq (HSA) value is on record for O=C([O-])c1ccccc1Nc1ccc([N+](=O)[O-])cc1.O=C([O-])c1ccccc1Nc1ccc([N+](=O)[O-])cc1.[Co+2].c1cnc2c(c1)ccc1cccnc12 [Complex 3, [Co(4′–NO2–fen)2(phen)]] ?
1.87 (±0.04) × 10^13 M^−1s^−1

----------
Test system: Bacillus subtilis ATCC 6633
Experiment: Antibacterial activity, MIC
Assay type: cell-based
Conditions: value in parentheses; 24 h incubation, 37°C; read-out: MIC, B. subtilis
Overview of recorded MIC for various molecules
Enter the number, and then the unit.

Look up MIC with Bacillus subtilis ATCC 6633 for this molecule: C[O-].C[O-].Cc1ccc2ccc3ccc(C)nc3c2n1.Cc1ccc2ccc3ccc(C)nc3c2n1.O=C([O-])c1ccccc1Nc1ccc([N+](=O)[O-])cc1.O=C([O-])c1ccccc1Nc1ccc([N+](=O)[O-])cc1.[Co+2].[Co+2] [Complex 4, [Co2(4′–NO2–fen)2(μ–CH3O)2(neoc)2]]
11 µM

Look up MIC with Bacillus subtilis ATCC 6633 for this molecule: O=C([O-])c1ccccc1Nc1ccc([N+](=O)[O-])cc1.O=C([O-])c1ccccc1Nc1ccc([N+](=O)[O-])cc1.[Co+2].c1cnc2c(c1)ccc1cccnc12 [Complex 3, [Co(4′–NO2–fen)2(phen)]]
33 µM

Look up MIC with Bacillus subtilis ATCC 6633 for this molecule: O=C([O-])c1ccccc1Nc1ccc([N+](=O)[O-])cc1.O=C([O-])c1ccccc1Nc1ccc([N+](=O)[O-])cc1.[Co+2].c1ccc(Nc2ccccn2)nc1 [Complex 2, [Co(4′–NO2–fen)2(bipyam)]]
34 µM

Look up MIC with Bacillus subtilis ATCC 6633 for this molecule: CO.CO.CO.CO.O=C([O-])c1ccccc1Nc1ccc([N+](=O)[O-])cc1.O=C([O-])c1ccccc1Nc1ccc([N+](=O)[O-])cc1.[Co+2] [Complex 1, [Co(4′–NO2–fen)2(MeOH)4]]
18 µM
